Where do these numbers come from? They come from paper PMC4380424.

- procedure_summary: Metabolic stability: in vitro incubation with human liver microsomes and NADPH, LC-MS quantification
- applied_conditions: pooled human liver microsomes, pH 7.4
quantity_name: half-life at 5 μM (min)

# input Param item = COc1ccccc1-c1c(=O)n(CCCCN2CCN(c3ncccn3)CC2)c(=O)n2ccccc12 [Compound 11] ; retrieve measured half-life at 5 μM.
# output 4

# input Then this compound: O=C1CC2(CCCC2)CC(=O)N1CCCCN1CCN(c2ncccn2)CC1 [Buspirone, buspirone, reference compound]
# output 6.59

I: O=c1c(-c2ccccc2)c2n(c(=O)n1CCCCN1CCN(c3ncccn3)CC1)CCCC2 [Compound 30]
II: O=c1c(-c2ccccc2)c2ccccn2c(=O)n1CCCCN1CCN(c2ncccn2)CC1 [Compound 6]
# input When their half-life at 5 μM values are compared, which is larger, I or II ? Return value: the label identifying the chosen record.
# output I

====

- procedure_summary: in vitro
- applied_conditions: human, microsomes, pH 7.4
quantity_name: half-life at 5 μM (min)
Answer in min, number only, no unit symbol.

# input What does the record list as half-life at 5 μM for O=C1C(c2ccccc2)C2CCCCN2C(=O)N1CCCCN1CCN(c2ccccc2F)CC1 (stereo not shown) ?
# output 5.77
